- ASSAY SYSTEM: T1, rh integrin α4β7 (R&D Systems #5397-A30) (human, UniProt P13612 34-970; P26010 20-723)
- T1 construct: bought; coated on a nickel coated plate; also called immobilized α4β7; immobilized α4β7 integrin protein
- TEST DESCRIPTION: competition ELISA vs MAdCAM-1
pIC50: −log10 of the molar value. Bridge positions count the residues as written; N and C are the ends. Square brackets hold non-standard residues; d marks the D form. Phe(3,4-Cl2) = N[C@@H](Cc1ccc(Cl)c(Cl)c1)C(=O)O; NMeR = CN[C@@H](CCCNC(=N)N)C(=O)O; Pen = CC(C)(S)[C@H](N)C(=O)O
OBSERVED PROPERTY: pIC50

>  <BINDER>
Ac-[Pen][NMeR]SDTL[Pen][Phe(3,4-Cl2)]E[dK]-NH2 (disulfide 1-7; SMILES CC(=O)N[C@@H]1C(=O)N(C)[C@@H](CCCNC(=N)N)C(=O)N[C@@H](CO)C(=O)N[C@@H](CC(=O)O)C(=O)N[C@@H]([C@@H](C)O)C(=O)N[C@@H](CC(C)C)C(=O)N[C@H](C(=O)N[C@@H](Cc2ccc(Cl)c(Cl)c2)C(=O)N[C@@H](CCC(=O)O)C(=O)N[C@H](CCCCN)C(N)=O)C(C)(C)SSC1(C)C) [SEQ ID NO: 17]

>  <OBSERVED PROPERTY>
pIC50

>  <READOUT VALUE>
< 8.00

$$$$
